biological target: T1, cleaved H3 tail peptide (H3 22-37), methylated at K27 (not fully specified; also: K27 methylated, degree not given here, biotinylated, site not given here); experiment: fluorescence anisotropy
T1 peptide: TKAARK(Me)SAPATGGVKK
Where no end group is shown, it is not given here.
observation type: pKd
# pKd = -log10(concentration in molar units)

Param item = chromodomain of mouse CBX7 (other) MELSAIGEQVFAVESIRKKRVRKGKVEYLVKWKGWPPKYSTWEPEEHILDPRLVMAYEEKEERDRASGYR ; retrieve measured pKd.
4.36
